Data origin, for the record: the Human Domainome abundance scans (Beltran et al. 2025)

B1: Chromodomain-helicase-DNA-binding protein 4, residues 444 to 496; numbered along this chain, Q14839 (parent)
chain: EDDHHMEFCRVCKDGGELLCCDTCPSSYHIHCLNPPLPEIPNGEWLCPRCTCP

variants of: B1; test: abundance fitness (aPCA) (normalised: wild type 0, dead -1); higher = more abundant; growth selection in yeast, the domain comes from the species named; details: Homo sapiens
Binary call on abundance fitness: y from -0.1 upward, n beneath that.

Worked examples follow.
# VARIANT NOTATION, CATEGORY LABEL
measured = [
    ("G43F", "n"),
    ("I40E", "y"),
    ("K13Q", "y"),
    ("L37Q", "n"),
]

[Q] Could you please find out whether `S26P` has abundance fitness that meets -0.1 or exceeds it?
[A] n

[Q] Is the recorded value of abundance fitness equal to or greater than -0.1 for this variant? `S27G`
[A] n

[Q] Form field: abundance fitness at least -0.1? Entry: `L33N`
[A] n
